// provenance: patent US20020128231A1

# tested.system: UniProt:P08183
# Sequence (P08183 whole entry): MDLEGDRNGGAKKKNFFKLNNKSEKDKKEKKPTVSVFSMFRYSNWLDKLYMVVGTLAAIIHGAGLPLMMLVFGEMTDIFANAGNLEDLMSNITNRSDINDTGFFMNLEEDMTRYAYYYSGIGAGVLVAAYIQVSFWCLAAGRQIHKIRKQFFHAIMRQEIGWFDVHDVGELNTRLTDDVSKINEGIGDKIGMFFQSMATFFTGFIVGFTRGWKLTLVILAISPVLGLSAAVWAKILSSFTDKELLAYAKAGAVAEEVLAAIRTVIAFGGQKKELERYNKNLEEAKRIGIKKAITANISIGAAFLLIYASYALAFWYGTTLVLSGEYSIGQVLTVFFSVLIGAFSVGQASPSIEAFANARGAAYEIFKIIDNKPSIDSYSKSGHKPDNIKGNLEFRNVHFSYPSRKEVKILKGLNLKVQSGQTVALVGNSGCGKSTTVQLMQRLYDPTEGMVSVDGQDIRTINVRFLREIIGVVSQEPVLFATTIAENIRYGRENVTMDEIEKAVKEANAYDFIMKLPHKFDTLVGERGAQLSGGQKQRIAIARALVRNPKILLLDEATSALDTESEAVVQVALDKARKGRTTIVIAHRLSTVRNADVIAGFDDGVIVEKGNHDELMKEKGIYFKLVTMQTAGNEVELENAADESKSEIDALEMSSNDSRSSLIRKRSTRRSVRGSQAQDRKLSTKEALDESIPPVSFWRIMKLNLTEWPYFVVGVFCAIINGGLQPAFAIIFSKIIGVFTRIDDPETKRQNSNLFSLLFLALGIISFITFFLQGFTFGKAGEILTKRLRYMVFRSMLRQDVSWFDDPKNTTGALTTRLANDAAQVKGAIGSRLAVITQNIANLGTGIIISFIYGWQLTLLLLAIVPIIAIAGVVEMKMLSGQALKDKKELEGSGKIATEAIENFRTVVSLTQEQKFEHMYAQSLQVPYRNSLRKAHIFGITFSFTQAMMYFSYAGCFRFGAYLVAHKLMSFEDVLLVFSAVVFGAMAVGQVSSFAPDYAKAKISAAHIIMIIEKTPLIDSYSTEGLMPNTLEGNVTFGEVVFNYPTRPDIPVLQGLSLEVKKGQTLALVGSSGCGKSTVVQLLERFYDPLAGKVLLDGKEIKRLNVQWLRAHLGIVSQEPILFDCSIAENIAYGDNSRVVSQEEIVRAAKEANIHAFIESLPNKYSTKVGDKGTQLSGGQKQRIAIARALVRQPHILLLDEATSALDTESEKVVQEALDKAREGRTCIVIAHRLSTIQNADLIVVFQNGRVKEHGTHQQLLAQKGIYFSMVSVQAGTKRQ
# assay.comment: Rhodamine 123 transport assay across HCT-8 cell monolayers
# experimental.setup: human, HCT-8 cell monolayers in Transwell dishes, probe Rhodamine 123 (15 μM), % Inhibition of R123 Transport, compound 10 μM; Rh123 15 μM; HCT-8 cells
In this section, each of the compounds is paired with its reported inhibition at 10 μM.
Number only, in %; omit the unit.

Example entries begin here.
- compound: "COCC1C(CCN2CCN(c3ccc(F)cc3)CC2)c2cc(OC)c(OC)cc2C1c1ccc(OC)c(OC)c1 (centres unmarked)"
  endpoint.value: 83.8
- compound: "CCOc1ccccc1N1CCN(C(=O)CC2c3cc4c(cc3C(c3ccc5c(c3)OCO5)C2C(=O)N2CCN(c3ccccc3OCC)CC2)OCO4)CC1 (single isomer, unassigned)"
  endpoint.value: 69.9
- compound: "COc1ccc(C2c3cc(OC)c(OC)cc3C(CC(=O)N3CCN(c4ccc(Cl)cc4)CC3)C2C(=O)N2CCN(c3ccc(Cl)cc3)CC2)cc1OC (centres unmarked)"
  endpoint.value: 66.3
- compound: "COCC1C(CCN2CCN(c3ccccc3)CC2)c2cc(OC)c(OC)cc2C1c1ccc(OC)c(OC)c1 (centres unmarked)"
  endpoint.value: 84.7
- compound: "COc1ccc(C2c3cc(OC)c(OC)cc3C(CC(=O)N3CCN(Cc4ccccc4)CC3)C2C(=O)N2CCN(Cc3ccccc3)CC2)cc1OC (centres unmarked)"
  endpoint.value: 85.1

q: For the compound COc1ccc(C2c3cc(OC)c(OC)cc3C(CC(=O)N(CC(C)C)CC(C)C)C2C(=O)N(CC(C)C)CC(C)C)cc1OC (centres unmarked) , what inhibition at 10 μM is on record?
a: 64.9

q: Another compound to check: CCCCCCN(CCCCCC)C(=O)CC1c2cc(OC)c(OC)cc2C(c2ccc(OC)c(OC)c2)C1C(=O)N(CCCCCC)CCCCCC (centres unmarked)
a: 11.8

q: Another compound to check: COc1ccc(C2c3cc(OC)c(OC)cc3C(CC(=O)N3CCNCC3)C2C(=O)N2CCNCC2)cc1OC (centres unmarked)
a: 25.1

q: Another compound to check: CCCCOc1ccc(C2c3cc(OCCCC)c(OC)cc3C(CC(=O)N3CCN(c4ccccc4OCC)CC3)C2C(=O)N2CCN(c3ccccc3OCC)CC2)cc1OC (centres unmarked)
a: 86.1

q: Another compound to check: CCCCCOc1ccc(C2c3cc(OCCCCC)c(OC)cc3C(CC(=O)N3CCN(c4ccccc4OCC)CC3)C2C(=O)N2CCN(c3ccccc3OCC)CC2)cc1OC (centres unmarked)
a: 64.2

q: Another compound to check: COCC1C(CCO)c2cc(OC)c(OC)cc2C1c1ccc(OC)c(OC)c1 (centres unmarked)
a: 11.5

q: Another compound to check: CCCCCCCCCCOc1ccc(C2c3cc(OCCCCCCCCCC)c(OC)cc3C(CC(=O)N3CCN(c4ccccc4OCC)CC3)C2C(=O)N2CCN(c3ccccc3OCC)CC2)cc1OC (centres unmarked)
a: 47.3

q: Another compound to check: COc1ccc(C2c3cc(OC)c(OC)cc3C(CC(=O)N3CCC(Cc4ccccc4)CC3)C2C(=O)N2CCC(Cc3ccccc3)CC2)cc1OC (centres unmarked)
a: 81.4

q: Another compound to check: COc1ccc(C2c3cc(OC)c(OC)cc3C(CC(=O)N(C)C)C2C(=O)N(C)C)cc1OC (centres unmarked)
a: 6

q: Another compound to check: COc1ccc(C2c3cc(OC)c(OC)cc3C(CC(=O)N3CCN(c4ccc(F)cc4)CC3)C2C(=O)N2CCN(c3ccc(F)cc3)CC2)cc1OC (centres unmarked)
a: 77.1

q: Another compound to check: CCCCC(CC)CN(CC(CC)CCCC)C(=O)CC1c2cc(OC)c(OC)cc2C(c2ccc(OC)c(OC)c2)C1C(=O)N(CC(CC)CCCC)CC(CC)CCCC (centres unmarked)
a: 20.2

q: Another compound to check: COCC1C(CCN2CCN(c3ccc(OC)cc3)CC2)c2cc(OC)c(OC)cc2C1c1ccc(OC)c(OC)c1 (centres unmarked)
a: 84

q: Another compound to check: COc1ccc(C2c3cc(OC)c(OC)cc3C(CC(=O)N3CCN(c4ccccc4)CC3)C2C(=O)N2CCN(c3ccccc3)CC2)cc1OC (centres unmarked)
a: 64.1

q: Another compound to check: CCOc1ccccc1N1CCN(C(=O)CC2c3cc(OC)c(O)cc3C(c3ccc(O)c(OC)c3)C2C(=O)N2CCN(c3ccccc3OCC)CC2)CC1 (centres unmarked)
a: 88.2

q: Another compound to check: COCC1C(CCN2CCN(Cc3ccccc3)CC2)c2cc(OC)c(OC)cc2C1c1ccc(OC)c(OC)c1 (centres unmarked)
a: 79

q: Another compound to check: CCOc1ccccc1N1CCN(C(=O)CC2c3cc(OC)c(OCc4ccccc4)cc3C(c3ccc(OCc4ccccc4)c(OC)c3)C2C(=O)N2CCN(c3ccccc3OCC)CC2)CC1 (centres unmarked)
a: 53.6

q: Another compound to check: CCOc1ccccc1N1CCN(CCC2c3cc(OC)c(OC)cc3C(c3ccc(OC)c(OC)c3)C2CN2CCN(c3ccccc3OCC)CC2)CC1 (centres unmarked)
a: 53.7

q: Another compound to check: COCC1C(CCN2CCN(c3ccccc3OC)CC2)c2cc(OC)c(OC)cc2C1c1ccc(OC)c(OC)c1 (centres unmarked)
a: 88.4

q: Another compound to check: CCCCN(CCCC)C(=O)CC1c2cc(OC)c(OC)cc2C(c2ccc(OC)c(OC)c2)C1C(=O)N(CCCC)CCCC (centres unmarked)
a: 52.2

q: Another compound to check: CCOc1ccc(C2c3cc(OCC)c(OC)cc3C(CC(=O)N3CCN(c4ccccc4OCC)CC3)C2C(=O)N2CCN(c3ccccc3OCC)CC2)cc1OC (centres unmarked)
a: 89.7

q: Another compound to check: COc1ccc(C2c3cc(OC)c(OC)cc3C(CCN3CCN(c4ccc(Cl)cc4)CC3)C2CN2CCN(c3ccc(Cl)cc3)CC2)cc1OC (centres unmarked)
a: 65.8
